Assay: Plasma stability (human plasma)
Details: human plasma, 30 min

| compound | Formation of EFdA at 30 min |
| --- | --- |
| C#C[C@]1(COC(=O)CCC23CC4CC(CC(C4)C2)C3)O[C@@H](n2cnc3c(N)nc(F)nc32)C[C@@H]1O | Yes |
| C#C[C@]1(COC(=O)OCCC23CC4CC(CC(C4)C2)C3)O[C@@H](n2cnc3c(N)nc(F)nc32)C[C@@H]1OC(=O)C(C)C | No |
| C#C[C@]1(COC(=O)OCCCC23CC4CC(CC(C4)C2)C3)O[C@@H](n2cnc3c(N)nc(F)nc32)C[C@@H]1OC(=O)OCC | Yes |
| C#C[C@]1(COC(=O)OC23CC4CC(CC(C4)C2)C3)O[C@@H](n2cnc3c(N)nc(F)nc32)C[C@@H]1OC(=O)OCC | No |
| C#C[C@]1(COC(=O)OCCCCC23CC4CC(CC(C4)C2)C3)O[C@@H](n2cnc3c(N)nc(F)nc32)C[C@@H]1O | Yes |
| C#C[C@]1(COC(=O)OCCCC23CC4CC(CC(C4)C2)C3)O[C@@H](n2cnc3c(N)nc(F)nc32)C[C@@H]1OC(=O)OCCCC12CC3CC(CC(C3)C1)C2 | No |
| C#C[C@@]12COC(=O)OCC3CCCCC3COC(=O)OC1C[C@H](n1cnc3c(N)nc(F)nc31)O2 (stereo in doubt) | No |
| C#C[C@]1(COC(=O)OCCCC23CC4CC(CC(C4)C2)C3)O[C@@H](n2cnc3c(N)nc(F)nc32)C[C@@H]1OC(=O)C(C)C | Yes |
| C#C[C@]1(COC(=O)OC23CC4CC(CC(C4)C2)C3)O[C@@H](n2cnc3c(N)nc(F)nc32)C[C@@H]1O | Yes |
| C#C[C@]1(CO)O[C@@H](n2cnc3c(N)nc(F)nc32)C[C@@H]1OC(=O)OCCC12CC3CC(CC(C3)C1)C2 | Yes |
| C#C[C@]1(COC(=O)OCCCCC23CC4CC(CC(C4)C2)C3)O[C@@H](n2cnc3c(N)nc(F)nc32)C[C@@H]1OC(=O)OCC | Yes |
| C#C[C@]1(COC(=O)OCCC23CC4CC(CC(C4)C2)C3)O[C@@H](n2cnc3c(N)nc(F)nc32)C[C@@H]1OC(=O)OCC | No |

* * *

Assay: Plasma stability (human plasma)
Details: human plasma, 30 min

| compound | Formation of EFdA at 30 min |
| --- | --- |
| C#C[C@]1(COC(=O)OCC23CC4CC(CC(C4)C2)C3)O[C@@H](n2cnc3c(N)nc(F)nc32)C[C@@H]1OC(=O)OCC | Yes |
| C#C[C@]1(COC(=O)OC23CC4CC(CC(C4)C2)C3)O[C@@H](n2cnc3c(N)nc(F)nc32)C[C@@H]1OC(=O)OC12CC3CC(CC(C3)C1)C2 | No |
| C#C[C@@]12COC(=O)OCCCCCC(=O)OC1C[C@H](n1cnc3c(N)nc(F)nc31)O2 (stereo in doubt) | Yes |
| C#C[C@]1(COC(=O)CCCC23CC4CC(CC(C4)C2)C3)O[C@@H](n2cnc3c(N)nc(F)nc32)C[C@@H]1O | Yes |
| C#C[C@@]12COC(=O)CCCCCOC(=O)O[C@H]1C[C@H](n1cnc3c(N)nc(F)nc31)O2 | Yes |
| C#C[C@]1(COC(=O)OCCCC23CC4CC(CC(C4)C2)C3)O[C@@H](n2cnc3c(N)nc(F)nc32)C[C@@H]1O | Yes |
| C#C[C@]1(COC(=O)OC23CC4CC(CC(C4)C2)C3)O[C@@H](n2cnc3c(N)nc(F)nc32)C[C@@H]1OC(=O)C(C)C | No |
| C#C[C@@]12COC(=O)OCCCOC(=O)O[C@H]1C[C@H](n1cnc3c(N)nc(F)nc31)O2 | Yes |
| C#C[C@]1(COC(=O)CC23CC4CC(CC(C4)C2)C3)O[C@@H](n2cnc3c(N)nc(F)nc32)C[C@@H]1O | No |
| C#C[C@]1(COC(=O)C23CC4CC(CC(C4)C2)C3)O[C@@H](n2cnc3c(N)nc(F)nc32)C[C@@H]1O | No |
| C#C[C@]1(COC(=O)OCCC23CC4CC(CC(C4)C2)C3)O[C@@H](n2cnc3c(N)nc(F)nc32)C[C@@H]1OC(=O)OCCC12CC3CC(CC(C3)C1)C2 | No |
| C#C[C@]1(COC(=O)OCC23CC4CC(CC(C4)C2)C3)O[C@@H](n2cnc3c(N)nc(F)nc32)C[C@@H]1OC(=O)OCC12CC3CC(CC(C3)C1)C2 | No |
| C#C[C@]1(COC(=O)OCCC23CC4CC(CC(C4)C2)C3)O[C@@H](n2cnc3c(N)nc(F)nc32)C[C@@H]1O | Yes |

* * *

Here the recorded half-life at 2 µM is given for each entry.
Assay: Plasma stability (human plasma)
Settings: human, pooled plasma, pH 7.4
observable: half-life at 2 µM

| molecule | observable | result |
| --- | --- | --- |
| C#C[C@]1(COC(=O)OCCCC23CC4CC(CC(C4)C2)C3)O[C@@H](n2cnc3c(N)nc(F)nc32)C[C@@H]1OC(=O)OCCCC12CC3CC(CC(C3)C1)C2 [Compound 22] | half-life at 2 µM | > 3.33 h |
| C#C[C@]1(COC(=O)OC23CC4CC(CC(C4)C2)C3)O[C@@H](n2cnc3c(N)nc(F)nc32)C[C@@H]1O [Compound 4] | half-life at 2 µM | > 3.33 h |
| C#C[C@@]12COC(=O)OCC3CCCCC3COC(=O)OC1C[C@H](n1cnc3c(N)nc(F)nc31)O2 (stereo in doubt) [Compound 30] | half-life at 2 µM | 0.833 to 3.33 h |
| C#C[C@]1(COC(=O)OCCC23CC4CC(CC(C4)C2)C3)O[C@@H](n2cnc3c(N)nc(F)nc32)C[C@@H]1OC(=O)OCCC12CC3CC(CC(C3)C1)C2 [Compound 9] | half-life at 2 µM | > 3.33 h |

# credit: patent US11793827B2
